assay: NCI Yeast Anticancer Drug Screen. Data for the rad50 strain (AID 155);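 note: 0% = growth of vehicle-only cultures of the same strain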; conditions: S. cerevisiae rad50 strain growth inhibition; at 3.7 µM; active compounds read high
This is part of a sample that, as a whole, favours compounds with a hit. Of some 79,000 tested, about 15% had one in any assay.
I'd be grateful if you could share measured growth inhibition for these entries.
Answers are plain numbers, in %.

Would you mind giving growth inhibition for every compound in the list below?
1. O=C(O)/C=C\C(=O)NNc1ccc(Br)cc1
2. O=C(O)CN(CCNC(=O)OCC1c2ccccc2-c2ccccc21)CCNC(=O)OCC1c2ccccc2-c2ccccc21
3. CCN(CC)c1cccc(Nc2nc3ccccc3s2)c1
4. O=C(O)NCC1CCCCC1 (tested in a mixture with another compound)
5. CC(C)OC(CCC#N)c1ccc(Cl)cc1 (configuration not stated)
6. Cc1ccc(N(C=O)c2c([N+](=O)[O-])cc([N+](=O)[O-])c3c2=[N+]([O-])CN=3)cc1

1: 53; 2: -9; 3: 9; 4: -3; 5: -25; 6: 18

Name the recorded growth inhibition for Cc1ccccc1C1=C(CC(=O)O)c2ccccc2CC1C (configuration not stated) .
10

----------
test: NCI Yeast Anticancer Drug Screen. Data for the mlh1 strain (AID 171);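 note: 0% = growth of vehicle-treated control cultures of the same strain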; conditions: S. cerevisiae mlh1 strain growth inhibition; at 3.7 µM; active compounds read high
Compounds without any hit were thinned out: in the full panel of roughly 79,000, 15% have a hit.
quantity: growth inhibition (%)
One number for each entry, in %.

> print(dat)
                                   molecule  observed.measurement
1  COc1cc(C(C)C(C(=O)O)C(=O)C(=O)O)cc(OC)c1OC (centres undefined)                     0
2  CCOC(=O)C1=C(C)NC(C)=C(C(=O)OCC)C1c1ccc(Cl)cc1                    -9
3  O=C(c1c(F)c(F)c(F)c(F)c1F)c1c(F)c(F)c(F)c(F)c1F                    56
4  O=C1C(C(O)(C(F)(F)F)C(F)(F)F)CCC1C(O)(C(F)(F)F)C(F)(F)F (centres undefined)                     7
5        CN(Cc1cccc2ccccc12)Cc1cccc2ccccc12                     2
6  CC[N+]1(C)CCC(O)(/C=C/c2ccc(Cl)c(Cl)c2)C(C(=O)/C=C/c2ccc(Cl)c(Cl)c2)C1 (centres undefined)                    45
7  N=C(N)c1ccc(N=Nc2c(O)ccc3c2[nH]c2ccccc23)cc1                     2
8        Nc1ccc2ncc(Nc3ccc(Cl)c(Cl)c3)nc2c1                     4

Name the recorded growth inhibition for "CCc1nc2ccc(N=Nc3c(O)ccc4ccccc34)cc2[nH]1" .
-10

----------
test: NCI Yeast Anticancer Drug Screen. Data for the bub3 strain (AID 167); conditions: S. cerevisiae bub3 mutant strain, at 100.0 µM, active compounds read high
The panel holds about 79,000 compounds, 15% with a hit somewhere; the sample as a whole holds those more often. The source made the active and inactive calls. No stated cut-off is given here; in the data, active means growth inhibition above about 70%; inactive means the rest.
quantity: growth inhibition

Solved entries (count: 5):
> print(dat)
                             molecule  observed.measurement
1    COc1cc(NCCCCCNC(C)C)c2ncccc2c1Cl        25% (inactive)
2     S=c1[nH]nc(Cc2ccccc2)c(=S)[nH]1          97% (active)
3          C[Si](C)(C)Cc1ccccc1C(=O)O          97% (active)
4  CN(Cc1cccc2ccccc12)Cc1cccc2ccccc12         2% (inactive)
5          O=C1C(Br)=CC(Br)(Br)C=C1Br          98% (active)

Would you mind giving growth inhibition for every molecule in the list below?
1. CC(=O)c1ccc(NCN2C(=O)c3ccccc3C2=O)cc1
2. COc1ccc(/C=C2\CCc3ccccc3C2=O)cc1OC
3. CC[C@@]1(OC(=O)CN(C)C)C(=O)OCc2c1cc1n(c2=O)Cc2cc3ccccc3nc2-1

1. 91% (active)
2. 94% (active)
3. 96% (active)

Would you mind giving growth inhibition for every molecule in the list below?
1. CN(C)CCn1c2ccccc2c2nc3cc4ccccc4cc3nc21
2. c1cc(Nc2ccc3c(c2)OCO3)c2cc(C3CCCCC3)ccc2n1

98% (active)
74% (active)

FYI, the data here is from PubChem BioAssay (NCI).
